Recorded measurements of EC50, one per entry
test system: human mGluR5a receptor (Homo sapiens, UniProt P41594)
Construct: host or cells: HEK293A (monoclones H10H and H12H)
Sequence (P41594 21-1180 isoform P41594-2 limits assumed): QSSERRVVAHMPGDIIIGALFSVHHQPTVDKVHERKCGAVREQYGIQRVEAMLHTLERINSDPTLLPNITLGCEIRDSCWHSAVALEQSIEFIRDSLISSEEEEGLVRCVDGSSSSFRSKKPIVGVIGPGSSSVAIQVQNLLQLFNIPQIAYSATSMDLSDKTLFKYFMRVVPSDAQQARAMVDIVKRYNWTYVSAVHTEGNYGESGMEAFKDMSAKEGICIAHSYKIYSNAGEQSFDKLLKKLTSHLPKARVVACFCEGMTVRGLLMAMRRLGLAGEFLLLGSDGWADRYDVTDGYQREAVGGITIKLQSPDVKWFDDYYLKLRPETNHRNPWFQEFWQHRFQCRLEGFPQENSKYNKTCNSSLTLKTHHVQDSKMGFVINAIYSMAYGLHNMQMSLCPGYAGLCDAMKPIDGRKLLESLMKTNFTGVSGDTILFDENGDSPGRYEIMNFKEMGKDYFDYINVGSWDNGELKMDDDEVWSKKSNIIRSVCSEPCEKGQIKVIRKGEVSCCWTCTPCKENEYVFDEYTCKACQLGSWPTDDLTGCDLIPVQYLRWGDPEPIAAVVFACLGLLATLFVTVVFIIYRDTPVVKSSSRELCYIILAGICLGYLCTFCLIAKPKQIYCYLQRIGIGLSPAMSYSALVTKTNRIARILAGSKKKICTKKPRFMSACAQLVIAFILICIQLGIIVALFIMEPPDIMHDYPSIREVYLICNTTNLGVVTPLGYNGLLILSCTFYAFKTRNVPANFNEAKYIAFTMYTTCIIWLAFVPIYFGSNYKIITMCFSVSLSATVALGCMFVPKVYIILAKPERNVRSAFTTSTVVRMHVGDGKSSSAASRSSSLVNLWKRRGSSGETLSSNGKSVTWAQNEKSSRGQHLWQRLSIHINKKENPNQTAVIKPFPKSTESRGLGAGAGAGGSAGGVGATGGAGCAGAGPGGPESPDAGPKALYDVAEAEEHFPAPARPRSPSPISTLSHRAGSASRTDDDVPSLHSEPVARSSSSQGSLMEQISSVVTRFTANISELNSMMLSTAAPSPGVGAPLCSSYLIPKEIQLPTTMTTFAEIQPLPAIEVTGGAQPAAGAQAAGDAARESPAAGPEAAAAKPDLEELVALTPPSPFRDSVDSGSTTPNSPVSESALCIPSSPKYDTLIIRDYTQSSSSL
assay comment: Functional Assay 2: Ca2+ mobilization, HEK cells with human mGluR5a receptor (H10H cell line)
Type: cell-based
assay context: H10H cell line, glutamate EC20

stdin: Could you share which EC50 value was measured for Cc1ccccc1COc1nc2c(s1)C(=O)NCC2 [Compound 67] ?
stdout: > 30.2 µM

Further cases:
stdin: Which value of EC50 has been reported for O=C1c2sc(COc3ccc(F)cc3)nc2CCN1C1CC1 [Compound 62] in the records?
stdout: > 10 µM

stdin: Similarly, Cc1cccc(COc2nc3c(s2)C(=O)NCC3)c1 [Compound 68] ?
stdout: > 30.2 µM

Each recorded value in this set is attributed to patent US9040707B2.
